test system: Staphylococcus aureus; experiment: Inhibition of Staphylococcus aureus caseinolytic protein protease using fluorogenic substrate assessed as residual activity at 10 uM after 15 mins
I'd be grateful if you could share measured Activity for these entries.
Give the number; % is assumed, so skip it.

Q: Requested read-out: Activity. Entry: CCCCCCCCCC[C@H]1C(=O)O[C@@H]1CCS(=O)(=O)CCCN(C)C
Ans: 37

Q: Same read-out for CCCCCCCCCC[C@H]1C(=O)O[C@@H]1CCCCS(=O)(=O)CCC[N+](C)(C)C ?
Ans: 9

Q: Can you handle CCCCCCCCCC[C@H]1C(=O)O[C@@H]1CCCCS(=O)(=O)CCCN(C)C next?
Ans: 13

Q: Also CCCCCCCCCC[C@@H]1C(=O)O[C@H]1CCSCCCN(C)C ?
Ans: 1

Q: Next compound up: CCCCCCCCCC[C@H]1C(=O)O[C@@H]1CCCCCS(=O)(=O)CCCN(C)C
Ans: 10

Q: Same again, this time with O=C1OC[C@@H]1CCc1ccccc1
Ans: 108

Q: What do you have for C#CCCCOC(=O)NCCCCC ?
Ans: 100

Q: One more compound: C=CCCCCCCC[C@H]1C(=O)O[C@@H]1CCCCCCCCCCCNC(=O)OC(C)(C)C
Ans: 105

Q: // next record CCCCCCCCCC[C@H]1C(=O)O[C@@H]1CCCS(=O)(=O)CCCN(C)C
Ans: 8

Q: Try the compound C#CCCCOC(=O)NCCCCCCCC=C
Ans: 101

Q: Note, next up: CCCCCCCCCC[C@@H]1C(=O)O[C@H]1CCCCS(=O)(=O)CCCN(C)C
Ans: 0

Q: Next compound up: CCCCCCCCCC[C@H]1C(=O)O[C@@H]1CCCS(=O)(=O)CCC[N+](C)(C)C
Ans: 7

Q: Next compound up: CCCCCCCCCC[C@@H]1C(=O)O[C@H]1CCCCCS(=O)(=O)CCCN(C)C
Ans: 5

Q: Also CCCCCCCCCC[C@H]1C(=O)O[C@@H]1CCCCCS(=O)(=O)CCC[N+](C)(C)C ?
Ans: 9

Q: Next: CCCCCCCCCCCC[C@H]1C(=O)O[C@@H]1CCc1ccccc1
Ans: 95

Q: Try C=CCCCCCCC[C@H]1C(=O)O[C@@H]1CCCCCNC(=O)c1ccc(N(C)C)cc1 next.
Ans: 30

Q: Could you do the same for C=CCCCCCCCC[C@H]1OC(=O)[C@@H]1CCCCCCCCCNC(=O)OC(C)(C)C , please?
Ans: 95

Q: Follow-up entry: C=CCCCCCCC[C@H]1C(=O)O[C@@H]1CCc1cccnc1
Ans: 0

Q: How about this compound: C=CCCCCCCCCC(=O)OC
Ans: 96

Q: Entry to check: C=CCCCCCCC[C@H]1C(=O)O[C@@H]1CCc1ccccc1
Ans: 70

Q: Also, C=CCCCCCCCCC(=O)OC(C)(C)C please.
Ans: 103

Q: Ok, now CCCCCCCCCC[C@@H]1C(=O)O[C@H]1CCCS(=O)(=O)CCC[N+](C)(C)C
Ans: 0

Q: Next entry: CCCCCCCCCC[C@H]1C(=O)O[C@@H]1CCSCCCN(C)C
Ans: 11

Q: Next entry: CCCCCCCCCC[C@@H]1C(=O)O[C@H]1CCCS(=O)(=O)CCCN(C)C
Ans: 0

Q: Consider next the compound CCCCCCCCCC[C@@H]1C(=O)O[C@H]1CCCCS(=O)(=O)CCC[N+](C)(C)C in the same way.
Ans: 36

Q: For CCCCCCCCCC[C@@H]1C(=O)O[C@H]1CCCCSCCCN(C)C then?
Ans: 0
